TARGET ENTITY: p38α (Homo sapiens)
TEST DESCRIPTION: Assay for p38 kinase inhibition (p38α)
Format: biochemical
CONDITION PARAMETERS: Table 5; read-out: IC50, inhibition of p38α
Reported pIC50 values follow for various compounds
Lab note — pIC50 values are minus log10 of concentrations in M.

Look over these answered cases.
[
  {
    "COMPOUND": "O=C(c1ccc2c(ccn2C(=O)c2ccncc2)c1)N1CCC(Cc2ccccc2)CC1 [drawing 82]",
    "TARGET ENTITY": "p38α (Homo sapiens)",
    "pIC50": 6.06
  },
  {
    "COMPOUND": "O=C(c1ccc2[nH]cnc2c1)N1CCC(Cc2ccc(F)cc2)CC1",
    "TARGET ENTITY": "p38α (Homo sapiens)",
    "pIC50": 6.41
  }
]

Summary for this compound, `CCN(CC)CCCn1ccc2cc(C(=O)N3CCC(Cc4ccccc4)CC3)ccc21` : pIC50 is 6.32

For `O=C(c1ccc2[nH]cnc2c1)N1CCC(Cc2ccccc2)CC1` the compound record lists pIC50 as 6.20

Value of measured pIC50 for the entry `CCN(CC)CCn1ccc2cc(C(=O)N3CCC(Cc4ccc(F)cc4)CC3)ccc21` : 6.45

# pIC50 (compound: `Cc1cc2c(Cl)c(C(=O)N3CCC(Cc4ccccc4)CC3)ccc2[nH]1` ) is 6.31

Query `COc1cc2[nH]cc(C(=O)NCCN(C)C)c2cc1C(=O)N1CCC(Cc2ccccc2)CC1` yields pIC50 of 7.19

Measured pIC50 of `CCN(CC)CCn1ccc2cc(C(=O)N3CCC(Cc4ccccc4)CC3)c(OC)cc21` : 6.74

---

TARGET ENTITY: p38-γ (Homo sapiens, UniProt P53778)
Sequence (P53778 1-367): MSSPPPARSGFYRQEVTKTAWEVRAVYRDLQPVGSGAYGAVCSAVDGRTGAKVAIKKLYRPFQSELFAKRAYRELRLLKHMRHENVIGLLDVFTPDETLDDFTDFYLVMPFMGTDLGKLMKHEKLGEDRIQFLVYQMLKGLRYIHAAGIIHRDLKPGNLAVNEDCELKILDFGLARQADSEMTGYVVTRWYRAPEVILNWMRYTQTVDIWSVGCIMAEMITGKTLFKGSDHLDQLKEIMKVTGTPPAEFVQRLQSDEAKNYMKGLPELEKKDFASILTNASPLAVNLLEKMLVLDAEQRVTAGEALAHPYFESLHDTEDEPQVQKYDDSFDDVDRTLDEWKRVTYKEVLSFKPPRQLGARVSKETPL
METRIC: IC50

Here O=C(c1ccc2cc[nH]c2c1)N1CCC(Cc2ccccc2)CC1 [Piperidinyl 6, 4-benzylpiperidinyl-indole-6-carboxamide] was tested on p38-γ (Homo sapiens, UniProt P53778), and its IC50 came to > 300 µM

---

Some molecules, each annotated with its measured IC50.
TARGET ENTITY: p38α (Homo sapiens, UniProt Q16539)
Sequence (Q16539 whole entry): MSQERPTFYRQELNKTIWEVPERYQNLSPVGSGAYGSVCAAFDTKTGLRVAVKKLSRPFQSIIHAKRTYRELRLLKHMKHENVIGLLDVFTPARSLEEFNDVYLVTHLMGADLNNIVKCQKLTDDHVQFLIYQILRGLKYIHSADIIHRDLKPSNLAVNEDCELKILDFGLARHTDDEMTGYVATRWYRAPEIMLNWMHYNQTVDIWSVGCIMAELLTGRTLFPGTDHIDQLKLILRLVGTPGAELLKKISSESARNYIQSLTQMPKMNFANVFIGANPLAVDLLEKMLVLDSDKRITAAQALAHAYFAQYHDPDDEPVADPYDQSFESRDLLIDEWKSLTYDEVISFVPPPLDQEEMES
TEST DESCRIPTION: Assay for p38 kinase inhibition (p38α);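 also: radiometric p38 kinase assay, peptide substrate phosphorylation with γ-32P-ATP, 40 min at room temperature, incorporated counts measured by scintillation, inhibition relative to uninhibited kinase activity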
Assay type: biochemical
CONDITION PARAMETERS: Table 1; by ring position of the piperidinyl or piperazinyl substituent on indole; read-out: IC50 for inhibition of p38α
Write the number in µM without appending the unit.

[
  {
    "ITEM SMILES": "O=C(c1c[nH]c2ccccc12)N1CCN(Cc2ccccc2)CC1",
    "IC50 [µM]": 5.44
  }
]

IC50 for `O=C(c1c[nH]c2ccccc12)N1CCC(Cc2ccccc2)CC1` is 0.2
